Data provenance: patent US20260209325A1

Target: T1, human pro-myostatin (human, UniProt O14793 24-375, biotinylated (in the SPR assay))
T1 construct: Disulfide-linked homodimer; also called proGDF8 (human)
Test: SPR Biacore 8K, biotin-antigen captured
measurement label: koff (s⁻¹)

- Ab103 (antibody, human IgG4 S228P, kappa, V domains shown) VH: EVQLVESGGGLVQPGGSLRLSCAASGYTFSSYGMSWVRQAPGKGLELVASITGDAGRTYYPDSVKGRFTISRDNAKNSLYLQMNSLRAEDTAVYYCARDTLVRFLEWSHYYGMDVWGQGTTVTVSS VL: DIVMTQSPLSLPVTPGEPASISCRSSQSLLHSSGHNFLHWYLQKPGQSPQLLIYEVSNRVSGVPDRFSGSGSGTDFTLKISRVEAEDVGVYYCMQQTQYPPTFGGGTKVEIKR: 0.00151
- Ab141 (antibody, human IgG4 S228P, kappa, V domains shown) VH: EVQLVESGGGLVQPGGSLRLSCAASGFTFSSYGMSWVRQAPGKGLELVASFTGSGGAYYPDSVKGRFTISRDNAKNSLYLQMNSLRAEDTAVYYCARDLLIRFLEWSHYYGMDVWGQGTTVTVSS VL: DIVMTQSPLSLPVTPGEPASISCRSSQSLLHSSGHNFLHWYLQKPGQSPQLLIYEVSNRVSGVPDRFSGSGSGTDFTLKISRVEAEDVGVYYCMQQTQYPGTFGGGTKVEIKR: 0.000112
